Non-standard residues stand in square brackets, D forms with d. Residues, ends and D or L forms follow the SMILES beside them. *: point of attachment. Fmoc = O=C(OCC1c2ccccc2-c2ccccc21)*; Cha = N[C@@H](CC1CCCCC1)C(=O)O; AMC = Cc1cc(=O)oc2cc(N*)ccc12
Listing of recorded intrinsic clearance, rat liver microsomes by entry.
parameter: intrinsic clearance, rat liver microsomes

• CCCc1cc(O)nc(SCC(=O)N2CCN(C)CC2)n1 = ≤ 10.7 mL/min/kg
• O=C(NCC(=O)N1CCN(C2CC2)CC1)c1ccccc1 = ≤ 10.7 mL/min/kg
• Cc1cc(=O)oc2cc(NC(=O)[C@H](CCCCN)NC(=O)[C@H](CC3CCCCC3)NC(=O)OCC3c4ccccc4-c4ccccc43)ccc12 (Fmoc-[Cha]-Lys-{AMC}) = ≤ 10.7 mL/min/kg

* * *

parameter: intrinsic clearance, human liver microsomes (mL/min/kg)

* O=C(CNC(=O)c1ccccc1Cl)Nc1cccc2c1CCCC2 | 60
* CC(C)c1nccn1-c1cccc([C@@H]2CCCN2C(=O)CCc2ccccc2)n1 | 557
* COCc1ncc(CN2CCC(Oc3cccc(C)c3)CC2)cn1 | 10.2
* CC(C)(C)c1nnnn1CC(=O)NC12CC3CC(CC(C3)C1)C2 | 57.4
* O=C(CSCCCn1c(=O)[nH]c2ccccc21)N1CCCCC1 | 68.3
* C=CC(=O)Nc1cccc(Oc2nc(Nc3ccc(N4CCN(C)CC4)c(F)c3)nc3[nH]ccc23)c1 | 26.8
* OCC1CCCCN1Cc1ccc(-c2ccccc2)cc1 (centres undefined) | 20.6
* CCCc1nc2nc(C)c(NS(=O)(=O)c3ccc(C4CCCCC4)cc3)c(O)n2n1 | 169
* CC(C)(O)CCn1cc2cc(NC(=O)c3cccc(C(F)F)n3)c(OCC3COC3)cc2n1 | 7.8
* OCc1nnc(SCCSC2CCCCC2)n1C1CC1 | 29
* Cc1cc(CSCc2c(C)noc2C)no1 | 130
* CCNC(=O)c1noc(-c2cc(C(C)C)c(O)cc2O)c1-c1ccc(CN2CCOCC2)cc1 | 38.8
* CCc1nnc(NC(=O)Cc2cccc(F)c2)s1 | 7.42
* CC(C)(C)n1ncc(OCc2ccc(OCCOCCO)nc2)c(Cl)c1=O | 8.19
* Fc1cccc(N2CCCC2)c1CN1CCN(Cc2ccon2)CC1 | 60.6
* COc1cc(-c2ccc(Cn3nc(C)cc3C)cn2)cc(OC)c1OC | 46.1
* CN1CCN(S(=O)(=O)c2ccc(C(F)(F)F)nc2)C(C)(C)C1 | 42.2
* CN1CC(=O)N(CCCC(=O)Nc2cccc(C#Cc3cccs3)c2)C1=O | 19.7
* CC(C)c1cnc(COc2ccc(Br)nc2)o1 | 73
* Cc1noc(C)c1C(=O)N1CCCN(c2ccc(F)cc2)CC1 | 111
* CN(CCC1CCCCC1)C(=O)c1ccon1 | 40.4

* * *

Documented intrinsic clearance, human liver microsomes across a set of compounds
parameter: intrinsic clearance, human liver microsomes (mL/min/kg)

* CN(C)c1ncc(CN2CCC(Cc3ccc(F)cc3)CC2)s1 | 43.1
* COc1cc(OC)cc(C(=O)NCc2noc(-c3ccccc3)n2)c1 | 34.9
* Nc1nc2ccccc2nc1N1CCCC1 | 232
* COc1ccc(-c2nn(C)c3ccccc23)c(OC)c1OC | 95.4
* Cc1cccc(NCC2CCN(C(=O)c3ccccc3)CC2)n1 | 13.2
* CCc1cc(NCc2cccc(OCCOC)c2)ncn1 | 9.28
* Oc1cc(F)ccc1-c1nc(-c2ccncc2)no1 | 42.9
* C=CCN(Cc1cccnc1)c1nc(C)nc2sccc12 | 188
* CCn1nc(C2CCCC2)nc1-c1ccncc1 | 24.6
* CCOc1ccc(Oc2ccc(OCc3cc(F)ccc3F)cc2)c(N)c1 | 8.79
* Cc1cc(-c2ccc(N)nc2)cc(C2CCN(C(=O)CCCc3ccc(F)c(C)c3)CC2)n1 | 963
* Nc1ccccc1-c1nc(C2CCCCCC2)no1 | 47.7
* Cc1cccc2cnc(C3CCN(C(=O)CCc4ccno4)CC3)cc12 | 31.2
* CC(C)(O)CCn1cc2cc(NC(=O)c3cccc(C(F)(F)F)n3)c(C(C)(C)O)cc2n1 | 9.92
* O=C(c1ccc(-n2cccn2)nc1)N1CCN(c2ccccc2O)CC1 | 5.81
* Cc1cc(C)nc(Nc2ccc(C3CCCN(CC(=O)N4CCCC4)C3)nc2)n1 (configuration not stated) | 8.28
* Nc1nnc(SCCSC2CCCCC2)n1C1CC1 | 48.5
* Cn1cnc2ncn(Cc3nc(CCc4ccc(Cl)cc4)no3)c(=O)c21 | 18

* * *

Please use 1 for fraction unbound, rat plasma under 0.08 and -1 for everything else, ties included.

- Cc1cccnc1Nc1cccc(C2CCCN(CC(=O)Nc3nccs3)C2)n1 (configuration not stated): 1
- COc1cc2c(cc1OC)CN(CCc1ccc(NC(=O)c3cccc4c(O)c5cccc(OC)c5nc34)cc1)CC2: 1
- CN(C)C(=O)C1(Cc2ccccc2-c2ccccc2)CCN(C(=O)c2cnn(C)c2)CC1: -1
- CNC(=O)C1(Cc2ccc(-c3cccnc3)cc2)CCN(Cc2ccc(F)cc2)C1 (configuration not stated): -1
- CCc1nc2c(C)cc(N3CCN(CC(=O)N4CC(O)C4)CC3)cn2c1N(C)c1nc(-c2ccc(F)cc2)c(C#N)s1: 1
- Nc1ncc(-c2cccc(C(F)(F)F)c2)c(C2CCCCN2C(=O)c2ccccc2)n1 (configuration not stated): 1
- Cc1cccc(/C=N/Nc2cc(N3CCOCC3)nc(OCCc3ccccn3)n2)c1: 1
- CC(=O)Nc1ncc(C(=O)O)s1: -1
- COc1ccc(Nc2c(C#N)cnc3cc(OC)c(OC)cc23)cc1Cl: 1
- COc1cc2ncnc(Nc3cccc(O)c3)c2cc1OC: 1
- Cc1cc(N2CCCC2)nc(C2CCCN(C)C2)n1 (configuration not stated): -1

* * *

Listing of recorded intrinsic clearance, rat liver microsomes by entry.
parameter: intrinsic clearance, rat liver microsomes

• COCCc1noc(CN2CC(c3ccccc3)(c3ccccc3)CCC2=O)n1 = 2010 mL/min/kg
• Fc1ccc(-c2nnc(CN3CCC(c4c[nH]c5ccccc45)CC3)o2)cc1 = 230 mL/min/kg
• O=C(CN1CCSC1=O)Nc1ccccc1F = ≤ 10.7 mL/min/kg

* * *

conditions: pH 6.8
I would appreciate it if you labelled entries Criterion met when aqueous solubility is 50 µg/mL or higher, otherwise Criterion not met.

• Clc1ccccc1CNCc1ccc2c(c1)OCCO2 = Criterion not met
• Clc1snnc1CN1CCCN(c2nc3ccccc3[nH]2)CC1 = Criterion not met
• O=C(NC1CCCC1)C(=O)c1ccc2c(c1)CCC2 = Criterion not met
• CN(C)C(C)(C)CNc1ncnc2ccccc12 = Criterion not met
• COc1cccc(CN(C)c2ncnc3c2CN(C)CC3)c1 = Criterion met
• CC(C)n1ccc(C(=O)N2CCS(=O)(=O)C(C)(C)C2)n1 = Criterion not met
• CC(C)(O)[C@H]1O[C@H]2CC[C@@]3(C)[C@@](O)(CC[C@H]4Cc5c([nH]c6ccccc56)[C@@]43C)C2=CC1=O = Criterion not met
• Nc1cnc(Cc2ccc(F)cc2)nc1 = Criterion not met
• CO[C@@H](C(=O)Nc1cc2c(C)cc(=O)oc2cc1C)c1ccccc1 = Criterion not met
• Cc1nc(CC2CCN(S(=O)(=O)c3c(C)noc3C)CC2)cc(NC2CCCC2)n1 = Criterion met
• COc1cccc(N(C)CCC(=O)N2CCC(c3ccc(-c4ccc(N)nc4)cn3)CC2)c1 = Criterion not met
• Cc1cc(F)ccc1NC(=O)Cn1cncn1 = Criterion not met
• O=C(c1ccccc1)N1CCN2C(=O)N(Cc3ccccc3)C(=O)[C@H]2C1 = Criterion met

* * *

Overview of recorded intrinsic clearance, rat liver microsomes for various compounds
parameter: intrinsic clearance, rat liver microsomes (mL/min/kg)

- CCc1nnc2n1CCN(C(=O)c1ccccc1Oc1cccnc1)C2: 74.7
- O=C(c1ccc(F)c(F)c1)N1CCN(C(=O)c2nc(Cl)ccc2Cl)CC1: 23.3
- Oc1ccccc1NCc1ccccn1: 600
- CN(C)C(=O)c1cncc(N(C)CCN(C)C2CCCC2)n1: 32.3

* * *

parameter: fraction unbound, rat plasma

* O=C1NCCSc2c1sc1ccc(O)cc21 | 0.146
* N#CC[C@H](C1CCCC1)n1cc(-c2ncnc3[nH]ccc23)cn1 | 0.176
* O=S(=O)(c1cccc2c(O)nccc12)N1CCCNCC1 | 0.979
* CCn1cc(C(=O)O)c(=O)c2c(N)c(F)c(NC3CCCCC3)cc21 | 0.0267
* CC(C)[C@H](CO)Nc1nc(Nc2cc(N)cc(Cl)c2)c2ncn(C(C)C)c2n1 | 0.00796
* COc1ccccc1C(=O)Nc1ccc2cc[nH]c2c1 | 0.0373
* C=CC(=O)N1CCC[C@H](n2c(=O)n(-c3ccc(Oc4ccccc4)cc3)c3c(N)ncnc32)C1 | 0.0189
* Cc1c[nH]c2nccc(Oc3c(F)cc(Nc4cc(Cl)nc(N)n4)cc3F)c12 | 0.00206
* Cc1nc(Nc2nccs2)cc(C2CN(c3ncccn3)C2)n1 | 0.0237
* Fc1ccc(-c2ccc3c(c2)[nH]c2ccncc23)cn1 | 0.0437
* Cc1noc(C(C)C)c1C(=O)N1CC(C)OC(c2ccccc2)C1 (stereo unspecified) | 0.129
* CC(C)(C)c1ccc(-c2nc3n(c(=O)c2C#N)CCS3)cc1 | 0.0286
* c1ccc(Oc2cccc(CN(CCN3CCOCC3)Cc3cccnc3)c2)cc1 | 0.0139
* COCC(=O)N1CCC(Cc2ccccc2-c2cccc(F)c2)(C(=O)NC(C)C)CC1 | 0.119
* OC[C@H](Nc1cncc(-c2ccc3[nH]ncc3n2)c1)c1ccccc1 | 0.106
* OCC1CCCCN1Cc1ccc(-c2ccccc2)cc1 (stereo unspecified) | 0.248
